studySystem: GLS1 (purified recombinant human GAC) (Homo sapiens)
Sequence (O94925 55-598 isoform O94925-3 limits assumed): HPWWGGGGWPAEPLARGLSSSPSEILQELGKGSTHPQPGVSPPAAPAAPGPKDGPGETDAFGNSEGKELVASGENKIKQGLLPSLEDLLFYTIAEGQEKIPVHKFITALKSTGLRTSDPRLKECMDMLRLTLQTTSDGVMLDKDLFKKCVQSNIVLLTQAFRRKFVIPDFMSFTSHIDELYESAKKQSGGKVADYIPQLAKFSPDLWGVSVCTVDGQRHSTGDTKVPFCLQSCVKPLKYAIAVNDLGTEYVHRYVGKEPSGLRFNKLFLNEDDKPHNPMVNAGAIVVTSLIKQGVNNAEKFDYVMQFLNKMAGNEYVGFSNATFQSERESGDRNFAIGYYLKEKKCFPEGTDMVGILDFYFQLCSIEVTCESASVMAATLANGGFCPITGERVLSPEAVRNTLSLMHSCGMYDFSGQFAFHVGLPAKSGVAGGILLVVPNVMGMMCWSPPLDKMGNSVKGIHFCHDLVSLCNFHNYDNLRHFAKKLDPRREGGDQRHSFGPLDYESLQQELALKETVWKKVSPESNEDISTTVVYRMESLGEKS
measurementNotes: GLS1 enzymatic activity assay (dual-coupled, Amplex UltraRed/resorufin)
Consider the following molecules; for each one, report its IC50.

GET /values?readout=IC50&item= CC(=O)Nc1ccn(CCCCn2cc(C(=O)NCc3cccc(OC(F)(F)F)c3)nn2)c(=O)c1
500 to 5000 nM

State the recorded IC50 for this entry: O=C(Cc1cccc(OC(F)(F)F)c1)Nc1ccc(CCCCn2ccc(NC(=O)OCc3ccccc3)nc2=O)nn1
< 100 nM

IC50 lookup needed for O=C(Cc1cccc(OC(F)(F)F)c1)Nc1ccc(CCCCn2ccc(NC(=O)CCN3CCCC3)nc2=O)nn1 , thanks.
100 to 500 nM

Give the measured IC50 of COCCNC(=O)c1nnc(CCCCn2ccc(NC(=O)Cc3ccccn3)cc2=O)s1 .
500 to 5000 nM

IC50 lookup needed for O=C(Nc1ccn(CCC(F)Cn2cc(C(=O)NCc3cc(C(F)(F)F)ccn3)nn2)c(=O)c1F)OC1CCC1 (stereo not shown) , thanks.
< 100 nM

// returns reported IC50 for input O=C(CC1CCCCC1)Nc1ccn(CCC(F)Cn2cc(C(=O)NCc3cc(OC(F)(F)F)ccc3F)nn2)c(=O)c1 (stereo not shown)
< 100 nM

Requested field: IC50. Item: CC(C)(C)OC(=O)NCc1cccc(CC(=O)Nc2ccn(CCCCc3nnc(NC(=O)Cc4ccccc4)s3)c(=O)n2)c1
< 100 nM

====

studySystem: GLS1 (purified recombinant human GAC) (Homo sapiens)
measurementNotes: GLS1 enzymatic activity assay (dual-coupled, Amplex UltraRed/resorufin)
measuredAttribute: IC50

Query: IC50; subject: O=C(Cc1cccnc1Cl)Nc1ccn(CCC(F)Cn2cc(C(=O)NCc3cccc(OC(F)(F)F)c3)nn2)c(=O)c1 (stereo not drawn)
< 0.1 µM

I'd like to know its IC50. The molecule in question is CC(=O)Nc1ccn(CCCCn2cc(C(=O)NCc3cccc(C(F)(F)F)c3)nn2)c(=O)c1
0.5 to 5 µM

Param item = Cc1ccc(CNC(=O)c2nnc(CCCCn3ccc(NC(=O)CC4CCCCC4)cc3=O)s2)cn1 ; retrieve measured IC50.
< 0.1 µM

Returns the measured IC50 for the input molecule. Input: O=C(CC1CCCCC1)Nc1ccn(CCCCn2cc(C(=O)NCc3cc(C(F)(F)F)ccn3)nn2)c(=O)c1
< 0.1 µM

Dear colleague, I am looking for the recorded IC50 of the following molecule: O=C(CN1CCC(F)(F)CC1)Nc1ccn(CCC(F)Cn2cc(C(=O)NCc3cc(C(F)(F)F)ccn3)nn2)c(=O)c1F (stereo not drawn)
< 0.1 µM

# input molecule: O=C(Cc1ccccc1)Nc1ccn(CCC(F)Cn2cc(C(=O)NCc3cc(Br)ccn3)nn2)c(=O)c1 (stereo not drawn) ; wanted: its IC50
< 0.1 µM

Name the reported IC50 value associated with the molecule O=C(Nc1ccn(CCC(F)Cn2cc(C(=O)NCc3cccc(OC(F)(F)F)c3)nn2)c(=O)c1F)C(=O)N1CCCC(O)C1 (stereo not drawn)
< 0.1 µM

# lookup: IC50 of O=C(Nc1ccn(CCC(F)Cn2cc(C(=O)NCc3cccc(OC(F)(F)F)c3)nn2)c(=O)c1F)C(=O)c1ccccc1 (stereo not drawn)
< 0.1 µM

// IC50 lookup, key: Nc1ccn(CCC(F)Cn2cc(C(=O)NCc3cccc(OC(F)(F)F)c3)nn2)c(=O)n1 (stereo not drawn)
0.5 to 5 µM

Which value of IC50 has been reported for O=C(CC1CCC1)Nc1ccn(CCC(F)Cn2cc(C(=O)NCc3cc(Cl)ccc3F)nn2)c(=O)c1 (stereo not drawn) in the records?
< 0.1 µM

Sample CC(=O)Nc1ccn(CCCCc2nnc(NC(=O)Cc3ccccc3)s2)c(=O)n1 — what was its IC50?
0.1 to 0.5 µM

Look at this molecule and give its reported IC50. CNC(=O)c1cn(CC(F)CCn2ccc(NC(=O)C(=O)N3CCCCC3)c(F)c2=O)nn1 (stereo not drawn)
0.5 to 5 µM

Return reported IC50; argument: CC(C)(C)OC(=O)Nc1ccn(CCC(F)Cn2cc(C(=O)NCc3cccc(OC(F)(F)F)c3)nn2)c(=O)c1F (stereo not drawn)
< 0.1 µM

What does the record list as IC50 for CCOC(=O)N1CCN(CC(=O)Nc2ccn(CCC(F)Cn3cc(C(=O)NCc4cccc(OC(F)(F)F)c4)nn3)c(=O)c2)CC1 (stereo not drawn) ?
< 0.1 µM

Name the recorded IC50 for O=C(NCc1cc(C(F)(F)F)ccn1)c1cn(CC(F)CCn2ccc(COc3cccc(Cl)c3)cc2=O)nn1 (stereo not drawn) .
< 0.1 µM
